Please go through the items and note down their growth.
System: OVCAR-8 ovarian
assay remarks: NCI-60 one-dose screen, 48 h (100 = growth as untreated, 0 = no growth, -100 = all killed)
experimental context: 10 µM unless noted
Compounds without any hit were thinned out: in the full panel of roughly 83,000, 20% have a hit.
Numeric answer only, unit % assumed.

Q) Reported growth, compound COc1ccc(-c2nc3sccn3c2-c2cc(-c3cc(OC)c(OC)c(OC)c3)on2)cc1 : ____
A) 94.6

Q) Reported growth, compound COc1ccc2[nH]c(O)c(C(=Nc3ccc(N(C)C(=O)CN4CCN(C)CC4)cc3)c3ccccc3)c2c1 : ____
A) 43.9

Q) Reported growth, compound O=C(N/N=C/c1ccncc1)c1ccc(C(F)(F)F)nc1Nc1cccc(C(F)(F)F)c1 : ____
A) -4.88

Q) Reported growth, compound O=C(COc1ccc(/C=C2\Oc3ccccc3C2=O)cc1)Nc1nc2c(s1)CCCC2 : ____
A) 6.97

Q) Reported growth, compound COC(=O)[C@]12CC[C@@H](C)[C@H](C)[C@@H]1C1=CC[C@@H]3[C@@]4(C)C(C=O)=C[C@@](C)(COC(=O)/C=C/c5ccccc5)[C@@H]4[C@H](O)C[C@@]3(C)[C@]1(C)CC2 : ____
A) 9.9

Q) Reported growth, compound S=C(c1ccc2c(c1)OCO2)N1CCN(c2ccccc2Cl)CC1 : ____
A) 102

Q) Reported growth, compound CS(=O)(=O)c1ccc(Nc2nc(N[C@H]3CCCC[C@H]3N)nc3cc[nH]c(=O)c23)cc1 : ____
A) 13.6

Q) Reported growth, compound c1c[nH]c(CNC2CCCCC2)c1 : ____
A) 102

Q) Reported growth, compound CCCCNC(=O)Oc1ccc2c(=O)c3sc4c(=O)c5ccccc5c(=O)c4c3c(=O)c2c1 : ____
A) -20.4

Q) Reported growth, compound COc1ccc(/C=C/c2c(C(=O)/C=C/c3ccc(F)cc3)c(C)nc3ccccc23)cc1 : ____
A) 41.3

Q) Reported growth, compound O=c1[nH]ccc2nc(N3CCC(O)CC3)nc(Nc3ccc(N4CCOCC4)cc3)c12 : ____
A) 85.5

Q) Reported growth, compound CC(C)(C)n1cc(-c2ccnc(NCCCNS(=O)(=O)c3ccccc3)c2)c(-c2ccccc2)n1 : ____
A) 68.9

Q) Reported growth, compound CCCCOc1nc2ccccc2cc1C1CNC(=O)c2ccccc2N1 (stereo not given) : ____
A) 22.4

Q) Reported growth, compound N#C/C(=C\c1ccc(Br)cc1)n1nnc2cc(F)c(F)cc21 : ____
A) 8.14

Q) Reported growth, compound N#Cc1c(N)nc(NCCO)nc1-c1ccc(F)cc1 : ____
A) 99.7

Q) Reported growth, compound Cc1nc2c(c(N3CCCc4ccccc43)n1)CCC2 : ____
A) 11

Q) Reported growth, compound CCCCn1c(=O)c2c(nc(NCCc3ccc(O)c(O)c3)n2CCC)n(CCCC)c1=O : ____
A) 75.5

Q) Reported growth, compound NC(=N\N=C/c1ccccc1[N+](=O)[O-])/C(N)=N\N=C/c1ccccc1[N+](=O)[O-] : ____
A) 109

Q) Reported growth, compound O=c1[nH]c2ccccc2n1C1CCN(CCOc2ccccc2)CC1 : ____
A) 79

Q) Reported growth, compound Cc1ccc(N(C(=O)CCc2c[nH]c3ccccc23)[C@H](C(=O)Nc2ccc(Cl)cc2)c2cccc([N+](=O)[O-])c2)cc1 : ____
A) 87.8
